# Measurement protocol: yeast display, Sf9 membrane polyspecificity reagent, FACS + sequencing; frameworks hold sequencing errors
Reported metric: polyreactivity (PSR sort gate)

[ask] I'd like to know its polyreactivity (PSR sort gate). The sequence in question is QVQLVESGGGLVQAGGRLRLSCAASGIVFKRYAKGWYRQAPGKEREFVATISYTGGRTYYADSVKGRFTISRDTAKNTVYLQMNSLKPEDTAVYYCATLYRSSKHQPLDYWGQGTQVTVSS
[reply] high polyreactivity

[ask] I'd like to know its polyreactivity (PSR sort gate). The sequence in question is QVQLVESGGGLVQAGGSLRLSCAASGSTFVFNAMGWYRQAPGKERELVARITTGGSTHYADSVKGRFTISRDNAKNTVYLQMNSLKPEDTAVYYCNTGPYTFDSPEYYYWGQGTQVTVSS
[reply] low polyreactivity

[ask] I'd like to know its polyreactivity (PSR sort gate). The sequence in question is QVQLVESGGGLVQAGGSLRLSCAASGITFTRYAMGWYRQAPGKEMEFVAAIRRSGGNTYYADSVKGRFTISRDNAKNTVYLQMNSLKPEDTAVYYCAASFRKTSPTRLVDYWGQGTQVTVSS
[reply] low polyreactivity

[ask] I'd like to know its polyreactivity (PSR sort gate). The sequence in question is QVQLVESGGGLVQAGRSLRLSSAASGNTFAGNAMGWYRQAPGKERELVAAISWSGTRTYYADSVKGRFTISRDNAKNTVYLQMNSLKPEDTAVYYCAKLSTNKEYYWGQGTQVTVSS
[reply] high polyreactivity

[ask] I'd like to know its polyreactivity (PSR sort gate). The sequence in question is QVQLVESGGGLVQAGGSLRLSCAASGRTFKKYAMGWFRQAPGKERELVAAITGSGGSTYYADSVKGRFTISRDNAKNTVYLQMNSLKPEDTADYYCAAYAYGVWHSQDGGNYWGQGTQVTVSS
[reply] low polyreactivity

Go through the list and state polyreactivity (PSR sort gate) for each entry.
1. QVQLVESGGGLVQAGASLRLSCAASGFIYSFNTMGWYRQAPGKERELVAAITSGGSTNYADSVKGRFTISRDNAKNTVYLQMNSLKPEDTAVYYCNRQYYSYYGNDYWGQGTQVTVSS
2. QVQLVESGGGLVQAGGSLRLSCAASGSIFFGYGMGWYRQAPGKERELVATITTSGGTYYADSVKGRFTISRDNAKNTVYLQMNSLKPEDTAVYYCNKEDYGLYPYYVSVGYDYWGQGTQVTVSS
3. QVHLVESGGGLVQSGGSLRLSCAASGRIFYYNAMGWYRQAPGKERELVAAITSSSGSSTYYADSVKGRFTISRDNAKNTVYLQMNSLKPEDTAVYYCAADATFIIRYLSRSDYWGQGTQVTVSS
4. QVQLVESGGGLVQAGGSLRLSCAASGFTFYDYDMGWSRQAPGKERELVATITWSGGRTYYADSVKGRFTISRDNAKNTVYLQMNSLKPEDTAVYYCAADEPDRDYGYWGQGTQVTVSS
5. QVQLVESGGGLVQAGGSLRLSCAASGSTFYPNAMGWYRQAPGKERELVAAITSAGSTYYADSVKGRFTISRDNAKNTVYLQMNSLKPEDTAVYYCAKRRASRYYWGQGTQVTVSS
6. QVQLVESGGGLVQAGGILRLSCAASGFIFAYYAMGWYRQAPGKEREFVAVITSSGGRTYYADSVKGRFTISRDNAKNTVYLQMNSLNPVDTAVYYCATSRGYANKYYYWGQGSQVTVSS

[reply]
1. high polyreactivity
2. low polyreactivity
3. low polyreactivity
4. low polyreactivity
5. high polyreactivity
6. low polyreactivity

Data origin: the nanobody polyreactivity screen of Harvey et al. (2022)
